Sourced from patent US20160108027A1

Target: thrombin (Homo sapiens, UniProt P00734)
Assay: Measurement of the thrombin inhibition in buffer
Assay type: biochemical
Conditions: human thrombin 0.06 nmol/l in Tris buffer pH 7.4, 22° C., substrate Boc-Asp(OBzl)-Pro-Arg-AMC; in some cases means of individual determinations
Protocol: To determine the thrombin inhibition of the substances listed above, a biochemical test system is constructed in which the conversion of a thrombin substrate is used for determining the enzymatic activity of human thrombin. Here, thrombin cleaves aminomethylcoumarin, which is measured fluorescently, from the peptic substrate. The determinations are carried out in microtitre plates. […]
Observation Type: IC50 (nM)

(P) COc1cc(C(=O)N2CC(C)(CC(C)O)OCC2CF)cc2nc(NCc3cc(Cl)ccn3)oc12 (racemic) [Example 22]
(Q) COc1cc(C(=O)N2CC(C)(CC(C)O)OC[C@H]2C)cc2nc(NC(C)c3cc(Cl)ccn3)oc12 (stereo partly shown) [Example 26]
(R) CCO[C@@H]1CC(CO)N(C(=O)c2cc(OC)c3oc(NC(C)c4cc(Cl)ccn4)nc3c2)C1 (stereo partly shown) [Example 4]
(S) COc1cc(C(=O)N2CC(C)(CCO)OCC2C(F)F)cc2nc(NCc3cc(Cl)ccn3)oc12 (stereo not shown)
Sort the entries above by IC50, smallest first. List the labels, following the order given in the request.
P, Q, S, R
(P: 1.7 nM, Q: 6.2 nM, S: 11 nM, R: 39 nM)

----------
Molecular target: thrombin (Homo sapiens)
Assay: Measurement of the thrombin inhibition in buffer
Type: biochemical
Conditions: human thrombin 0.06 nmol/l in Tris buffer pH 7.4, 22° C., substrate Boc-Asp(OBzl)-Pro-Arg-AMC; in some cases means of individual determinations
Protocol: To determine the thrombin inhibition of the substances listed above, a biochemical test system is constructed in which the conversion of a thrombin substrate is used for determining the enzymatic activity of human thrombin. Here, thrombin cleaves aminomethylcoumarin, which is measured fluorescently, from the peptic substrate. The determinations are carried out in microtitre plates. […]
Observation Type: IC50 (nM)

(1) COc1cc(C(=O)N2CC(C)(C)OCC2CF)cc2nc(NCc3cc(Cl)ccn3)oc12 (single isomer, unassigned) [Example 43]
(2) COc1cc(C(=O)N2CC(C)(CC(C)O)OCC2(C)C)cc2nc(NCc3cc(Cl)ccn3)oc12 (single isomer, unassigned) [Example 35]
(3) COc1cc(C(=O)N2CC(C)(CC(C)O)OCC2CF)cc2nc(NCc3cc(Cl)ccn3)oc12 (single isomer, unassigned) [Example 23]
Form: Sort by [IC50] Order [ ascending ] Response format: the labels, sorted as the prompt asks.
3, 2, 1
(3: 0.8 nM, 2: 5 nM, 1: 18 nM)

(P) COc1cc(C(=O)N2CC(C)CCC2CCO)cc2nc(NCc3cc(Cl)ccn3)oc12 (single isomer, unassigned)
(Q) CCC1C(=O)NC2(CC2)CN1C(=O)c1cc(OC)c2oc(NCc3cc(Cl)ccn3)nc2c1 (single isomer, unassigned) [Example 79]
Quick one: lower IC50, P or Q ? Field: selected label. Fill in the label of the entry you choose.
Q
(Q: 4.5 nM, P: 17 nM)

----------
Target: thrombin (Homo sapiens)
Test: Measurement of the thrombin inhibition in buffer
Format: biochemical
Settings: human thrombin 0.06 nmol/l in Tris buffer pH 7.4, 22° C., substrate Boc-Asp(OBzl)-Pro-Arg-AMC; in some cases means of individual determinations
pIC50: −log10 of the molar value.
Observation Type: pIC50

COCC1C(=O)N2CCC2CN1C(=O)c1cc(OC)c2oc(NCc3cc(Cl)ccn3)nc2c1 (single isomer, unassigned) | 7.49

(A) COc1cc(C(=O)N2CC(C)CCC2CC2(O)CC2)cc2nc(NCc3cc(Cl)ccn3)oc12 (stereo not drawn) [Example 87]
(B) COc1cc(C(=O)N2CC(C)OCC2CC(C)(C)O)cc2nc(NCc3cc(Cl)ccn3)oc12 (racemic) [Example 55]
(C) COc1cc(C(=O)N2CC(C)(C)OCC2CC(C)O)cc2nc(NCc3cc(Cl)ccn3)oc12 (single isomer, unassigned) [Example 63]
Ordering: ascending pIC50. List each label, following the requested order.
B, C, A

(P) COc1cc(C(=O)N2CC(C)(CCO)OCC2COC(F)F)cc2nc(NCc3cc(Cl)ccn3)oc12 (single isomer, unassigned)
(Q) COc1cc(C(=O)N2CCCC2(C)C(=O)N2CC(F)C2)cc2nc(NCc3cc(Cl)ccn3)oc12 (single isomer, unassigned)
Name the one with the greater pIC50 value, either P or Q as given. Response format: the label of the selected entry.
P

----------
Biological target: thrombin (Homo sapiens)
Assay: Measurement of the thrombin inhibition in buffer
Assay type: biochemical
Conditions: human thrombin 0.06 nmol/l in Tris buffer pH 7.4, 22° C., substrate Boc-Asp(OBzl)-Pro-Arg-AMC; in some cases means of individual determinations
pIC50: −log10 of the molar value.
Observation Type: pIC50

Example results:
COc1cc(C(=O)N2CC(C)OCC2C2CC(O)C2)cc2nc(NCc3cc(Cl)ccn3)oc12 (single isomer, unassigned) [Example 49] | 7.62
COc1cc(C(=O)N2CC(C)(CCO)OCC2(C)C)cc2nc(NCc3cc(Cl)ccn3)oc12 (single isomer, unassigned) [Example 33] | 8.14
COc1cc(C(=O)N2CC(C)OCC2(C)CO)cc2nc(NCc3cc(Cl)ccn3)oc12 (single isomer, unassigned) [Example 20] | 7.44
COCC1COC(C)(CCO)CN1C(=O)c1cc(OC)c2oc(NCc3cc(Cl)ccn3)nc2c1 (stereo not shown) [Example 30] | 7.60
COc1cc(C(=O)N2CC3CCN3C(=O)C2C)cc2nc(NCc3cc(Cl)ccn3)oc12 (single isomer, unassigned) [Example 75] | 7.49

(A) COc1cc(C(=O)N2CC3(CC3)NC(=O)C2C)cc2nc(NCc3cc(Cl)ccn3)oc12 (single isomer, unassigned) [Example 77]
(B) COc1cc(C(=O)N2CC(C)OCC2CCO)cc2nc(NCc3cc(Cl)ccn3)oc12 (racemic) [Example 70]
(C) COc1cc(C(=O)N2CC(C)OCC2CCO)cc2nc(NCc3cc(Cl)ccn3)oc12 (single isomer, unassigned) [Example 71]
(D) COc1cc(C(=O)N2CCOC(C)(CC(C)O)C2)cc2nc(NCc3cc(Cl)ccn3)oc12 (single isomer, unassigned) [Example 61]
(E) COc1cc(C(=O)N2CC(C)(C)OC[C@H]2CCO)cc2nc(NC(C)c3cc(Cl)ccn3)oc12 (stereo partly shown) [Example 59]
Put the items in order so that reported pIC50 rises from first to last. A complete answer lists every label in the requested sequence.
C, E, B, D, A

----------
Target: thrombin (Homo sapiens)
Assay: Determination of the thrombin-inhibitory activity in plasma samples (ecarin-activated)
Type: biochemical
Conditions: citrate plasma, ecarin activation, fluorogenic thrombin substrate; in some cases means of individual determinations
Observation Type: IC50 (µM)

(I) COc1cc(C(=O)N2CC(C)(C)OCC2CF)cc2nc(NCc3cc(Cl)ccn3)oc12 (racemic) [Example 42]
(II) COc1cc(C(=O)N2CC(C)OCC2C2CC(O)C2)cc2nc(NCc3cc(Cl)ccn3)oc12 (single isomer, unassigned) [Example 49]
(III) COc1cc(C(=O)N2CC(C)NC(=O)C2CC#N)cc2nc(NCc3cc(Cl)ccn3)oc12 (single isomer, unassigned)
Ordering: ascending IC50. List the labels according to the requested ordering.
I, II, III

----------
Biological target: thrombin (Homo sapiens)
Experiment: Measurement of the thrombin inhibition in buffer
Assay type: biochemical
Details: human thrombin 0.06 nmol/l in Tris buffer pH 7.4, 22° C., substrate Boc-Asp(OBzl)-Pro-Arg-AMC; in some cases means of individual determinations
Observation Type: IC50 (nM)

Here are 5 compounds together with their reported answers.
CCC1C(=O)NC(C)CN1C(=O)c1cc(OC)c2oc(NCc3cc(Cl)ccn3)nc2c1 (single isomer, unassigned) [Example 80] | 16
COCC1COC(C)(CCO)CN1C(=O)c1cc(OC)c2oc(NCc3cc(Cl)ccn3)nc2c1 (single isomer, unassigned) [Example 31] | 11
COc1cc(C(=O)N2CC(C)(CCO)OC[C@H]2C)cc2nc(NCc3cc(Cl)ccn3)oc12 (single isomer, unassigned) [Example 24] | 2.5
COc1cc(C(=O)N2CC(C)(C)OCC2(C)C(C)O)cc2nc(NCc3cc(Cl)ccn3)oc12 (stereo not shown) [Example 69] | 17
[2H]C([2H])(C)O[C@@H]1CC(CO)N(C(=O)c2cc(OC)c3oc(NC(C)c4cc(Cl)ccn4)nc3c2)C1 (stereo partly shown) [Example 97] | 17

(a) COc1cc(C(=O)N2CC(C)OCC23CC(O)C3)cc2nc(NCc3cc(Cl)ccn3)oc12 (single isomer, unassigned) [Example 53]
(b) COc1cc(C(=O)N2CC(C)(CC(C)O)OC[C@H]2C)cc2nc(NC(C)c3cc(Cl)ccn3)oc12 (single isomer, unassigned) [Example 27]
(c) COc1cc(C(=O)N2CC(C)OCC2C2CC(O)C2)cc2nc(NCc3cc(Cl)ccn3)oc12 (stereo not shown) [Example 46]
Arrange the 3 compounds from largest to smallest IC50. Would you mind listing the labels in the order asked for?
a, c, b
(a: 36 nM, c: 14 nM, b: 2.1 nM)

(P) COc1cc(C(=O)N2CC(C)(C)OCC2C(C)O)cc2nc(NCc3cc(Cl)ccn3)oc12 (single isomer, unassigned) [Example 95]
(Q) COc1cc(C(=O)N2CC(C)(C)OCC2CF)cc2nc(NCc3cc(Cl)ccn3)oc12 (racemic) [Example 42]
(R) COc1cc(C(=O)N2CC(C)(CC(C)O)OC[C@H]2C)cc2nc(NCc3cc(Cl)ccn3)oc12 (single isomer, unassigned) [Example 25]
Arrange these compounds by their IC50, starting with the largest number. Give your ranking as a list of the labels in the requested order.
Q, P, R
(Q: 27 nM, P: 6.8 nM, R: 1 nM)

(P) COc1cc(C(=O)N2CC(C)(C)NC(=O)C2CC#N)cc2nc(NCc3cc(Cl)ccn3)oc12 (racemic) [Example 83]
(Q) COc1cc(C(=O)N2CC(C)CCC2C2(O)CC2)cc2nc(NCc3cc(Cl)ccn3)oc12 (single isomer, unassigned) [Example 89]
Hi, I'm comparing two records. Which one has the lower IC50, P or Q ? # respond with the chosen item's label
Q
(Q: 17 nM, P: 36 nM)
